Molecular target: Estrogen receptor beta (Homo sapiens)
Experiment: OT_ER_ERbERb_1440: Odyssey Thera (OT) 24-hour HEK293T Protein-Complementation Assay for Estrogen Receptor-beta/-beta Homodimer (AID 2283380);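 note: fluorescence gain from ER beta LBD homodimer complementation read by laser scanning cytometry; scored as signal increase over DMSO baseline for both agonists and antagonists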
The source made the active and inactive calls. Rule for the calls: active = hit-call score of the fitted dose curve at least 0.9, where 1 is the maximum; inconclusive = response in the unintended direction; inactive = score below 0.9.
// classify into t (active), f (inactive)

Answered cases to consult:
MOLECULE: CCN(Cc1cccc(S(=O)(=O)O)c1)c1ccc(C(=C2C=CC(=[N+](CC)Cc3cccc(S(=O)(=O)O)c3)C=C2)c2ccc(O)cc2S(=O)(=O)[O-])cc1
TESTED ON: Estrogen receptor beta (Homo sapiens)
QUALITATIVE LABEL: f

MOLECULE: CN(C)Cc1ccccc1O
TESTED ON: Estrogen receptor beta (Homo sapiens)
QUALITATIVE LABEL: f

MOLECULE: CCCCCCC(C)OC(=O)CCCCC(=O)OC(C)CCCCCC (stereo unspecified)
TESTED ON: Estrogen receptor beta (Homo sapiens)
QUALITATIVE LABEL: f

MOLECULE: CCCCCCOC(=O)c1ccccc1O
TESTED ON: Estrogen receptor beta (Homo sapiens)
QUALITATIVE LABEL: f

[ask] State the result this test recorded for `CCCCOc1ccc(N)cc1` .
[reply] t

[ask] State the result this test recorded for `CCCCCCOC(=O)c1ccccc1` .
[reply] f

[ask] State the result this test recorded for `Cc1ccc(S(=O)(=O)NCl)cc1` .
[reply] f

###

Assay: ATG_GRE_CIS: Attagene CIS-FACTORIAL HepG2 Assay for human Glucocorticoid Response Elements (GRE) (AID 2282947)
Settings: HepG2 GRE cis-reporter, Attagene multiplex mRNA; actives raise or lower the signal
Active and inactive are the calls of the source. How the source made its calls: active means hit-call score of the fitted dose curve at least 0.9, where 1 is the maximum; inactive means score below 0.9.
MEASURED QUANTITY: outcome

# annotated cases, reported outcome shown
STRUCTURE SMILES: C=CC(F)(F)C(F)(F)C(F)(F)C(F)(F)C(F)(F)C(F)(F)C(F)(F)C(F)(F)C=C
outcome: inactive
--
STRUCTURE SMILES: CCC(=O)OCCc1ccccc1
outcome: inactive
--
STRUCTURE SMILES: Nc1ccc([N+](=O)[O-])cc1O
outcome: inactive
--
STRUCTURE SMILES: CCCCCCCCC(F)(F)C(F)(F)C(F)(F)C(F)(F)C(F)(F)C(F)(F)F
outcome: inactive

What the record says about `O=C(O)C(F)(F)C(F)(F)C(F)(F)C(F)(F)C(F)(F)C(F)(F)C(F)(F)C(F)(F)Cl` : outcome is inactive

What the record says about `CCN(CC)c1ccc2c(C)cc(=O)oc2c1` : outcome is inactive

What the record says about `CCc1ccc(C(c2ccc(CC)cc2)C(Cl)Cl)cc1` : outcome is inactive

What the record says about `Cc1cc(C)cc(O)c1` : outcome is inactive

What the record says about `FC(F)(F)C(F)(F)CNCC(F)(F)C(F)(F)F` : outcome is inactive

What the record says about `Oc1ccc(Nc2ccccc2)cc1` : outcome is inactive

What the record says about `O=C(O)C(F)(F)C(F)(F)C(F)(F)C(F)(F)C(F)(F)C(F)(F)C(F)(F)C(F)(F)C(F)(F)C(F)F` : outcome is inactive

What the record says about `CC/C=C\CCOC(=O)c1ccccc1` : outcome is inactive

###

Target: Nuclear receptor subfamily 1 group I member 2 (Homo sapiens) (UniProt O75469)
Sequence (O75469 whole entry, looked up): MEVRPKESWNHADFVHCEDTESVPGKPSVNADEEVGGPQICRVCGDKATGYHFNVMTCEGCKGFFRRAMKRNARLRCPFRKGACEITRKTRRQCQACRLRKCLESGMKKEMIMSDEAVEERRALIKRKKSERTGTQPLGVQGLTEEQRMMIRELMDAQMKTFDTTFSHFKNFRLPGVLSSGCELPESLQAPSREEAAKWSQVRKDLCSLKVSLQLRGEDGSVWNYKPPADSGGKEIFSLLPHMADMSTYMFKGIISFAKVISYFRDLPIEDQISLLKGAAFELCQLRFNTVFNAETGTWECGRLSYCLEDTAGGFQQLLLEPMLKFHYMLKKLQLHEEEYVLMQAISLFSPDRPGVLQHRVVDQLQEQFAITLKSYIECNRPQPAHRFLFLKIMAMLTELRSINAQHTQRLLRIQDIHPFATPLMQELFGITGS
Experiment: ATG_PXR_TRANS: Attagene TRANS-FACTORIAL HepG2 Assay for human Pregnane X Receptor (PXR) (AID 2283008)
Results filed as inconclusive are left out. Activity calls are given as the source filed them. How the source made its calls: active means hit-call score of the fitted dose curve at least 0.9, where 1 is the maximum; inconclusive means response in the unintended direction; inactive means score below 0.9.
// classify into T = active, F = inactive

Answered cases to consult:
STRUCTURE SMILES: C=CC/C=C/C/C=C/C/C=C/C
QUALITATIVE LABEL: F
--
STRUCTURE SMILES: CCN(CC)c1ccc2c(C)cc(=O)oc2c1
QUALITATIVE LABEL: T
--
STRUCTURE SMILES: Cc1ccc(S(=O)(=O)NCl)cc1
QUALITATIVE LABEL: F
--
STRUCTURE SMILES: C=CC(=O)OCC(F)(F)C(F)(F)C(F)(F)C(F)(F)C(F)(F)C(F)(F)C(F)(F)F
QUALITATIVE LABEL: F
--
STRUCTURE SMILES: FC(F)(F)C(F)(F)C(F)(F)C(F)(F)C(F)(F)C(F)(F)CCS
QUALITATIVE LABEL: F

[ask] State the result this test recorded for `C=C(C)C(=O)OCCC(F)(F)C(F)(F)C(F)(F)C(F)(F)C(F)(C(F)(F)F)C(F)(F)F` .
[reply] F
